Experiment: Quantitative High-Throughput drug screen in 47 multiple myeloma cell lines against the NCATS MIPE library collection: JIM3_ECACC cell viability assay (AID 1918963; also: nearly all actives have a fitted effect of over 35% in size)
Details: JIM3 myeloma viability, CellTiter-Glo ATP, 48 h; series mostly up to 45.8 µM
Inconclusive results are not listed. Calls of active or inactive are those of the source. Calls follow the shape of the dose curve; as a rule, active = well fitted cell-killing curve with a large enough effect; inconclusive = small, poorly fitted or top-dose-only effect; inactive = no such curve, though single readings can be large or run the other way.
Use one of these outcomes when replying: label 1 (active), label 0 (inactive)

Reference set, count: 5
# compound, classLabel
measured = [
    ("Nc1nc(Nc2ccc(S(N)(=O)=O)cc2)nn1C(=O)c1c(F)cccc1F", "label 1"),
    ("O=C(O)CO.[NH2-].[NH2-].[Pt+2]", "label 0"),
    ("CC[C@H]1CN2CCc3cc(OC)c(OC)cc3[C@H]2C[C@@H]1C[C@@H]1NCCc2cc(OC)c(OC)cc21", "label 1"),
    ("CC[C@@]1(O)C(=O)OCc2c1cc1n(c2=O)Cc2cc3cc(O)ccc3nc2-1", "label 1"),
    ("CCOc1cc2ncc(C#N)c(Nc3ccc(F)c(Cl)c3)c2cc1NC(=O)C=CCN(C)C", "label 1"),
]

Prompt line: // outcome(item) with item = Cc1[nH]nc2ccc(-c3cncc(OC[C@@H](N)Cc4ccccc4)c3)cc12
Response line: label 1

Prompt line: # iterate: C[C@@]12O[C@@H](C[C@]1(O)CO)n1c3ccccc3c3c4c(c5c6ccccc6n2c5c31)CNC4=O
Response line: label 1

Prompt line: For CC(C)(C)c1cc(C(C)(C)C)c(NC(=O)c2c[nH]c3ccccc3c2=O)cc1O then?
Response line: label 0

Prompt line: Subsequent entry: CC(=O)Nc1nc(C)c(-c2ccc(Cl)c(S(=O)(=O)NCCO)c2)s1
Response line: label 1

Prompt line: Lookup CC(=O)SC[C@@H](C)C(=O)N1CCC[C@H]1C(=O)N[C@@H](Cc1ccccc1)C(=O)O
Response line: label 0

Prompt line: Input CCCn1c(=O)c2[nH]c(-c3cnn(Cc4cccc(C(F)(F)F)c4)c3)nc2n(CC)c1=O
Response line: label 0

Prompt line: Now this one: Cc1ccc(S(=O)(=O)Nc2cc(Cl)ccc2C(=O)Nc2nc(-c3ccccc3)cs2)cc1
Response line: label 1

====

Test system: PA-1
Assay: Primary qHTS to identify gynecologic anti-cancer compounds using libraries of approved drugs and bioactive compounds (AID 1345084); also: nearly all actives have a fitted effect of over 55% in size
Conditions: Gynecologic cancer cell panel viability, ATPlite luminescence, 48 h; series mostly up to 57.5 µM
Text: National Center for Advancing Translational Sciences [NCATS] Assay Overview: Chemotherapeutic drug responses vary from cancer to cancer and from patient to patient. […] ATPlite is a luminescence based assay reliant on the conversion of a luciferase substrate to light in the presence of ATP. As a cytotoxic compound will suppress growth and decrease the number of cells, the concentration of ATP will decrease, and less light signal will be detected in the well. […]
Records with an inconclusive call do not appear. Active and inactive are the calls of the source. Calls follow the shape of the dose curve; as a rule, active = well fitted cell-killing curve with a large enough effect; inconclusive = small, poorly fitted or top-dose-only effect, or effect the other way; inactive = flat fitted curve, though single readings scatter.
Valid outcomes are listed here; reply with one: true (1) (active), false (0) (inactive)

Take a look at these entries with their results.
# compound, classLabel
rows = [
    ("CC(=O)SC[C@@H](C)C(=O)N1CCC[C@H]1C(=O)N[C@@H](Cc1ccccc1)C(=O)O", "false (0)"),
    ("O=C(O)CCCc1c[nH]c2ccccc12", "false (0)"),
    ("COc1ccc(-c2cc3c(C)nc(N)nc3n(C3CCC(OCCO)CC3)c2=O)cn1 (centres undefined)", "true (1)"),
    ("CCS(=O)(=O)c1cccc(-c2cc(C(=O)NC3CCN(C)CC3)c(C)c3[nH]c4ncc(C)cc4c23)c1", "true (1)"),
    ("COc1cc2c(Oc3ccc4[nH]c(C)cc4c3F)ncnc2cc1OCCCN1CCCC1", "false (0)"),
]

Prompt line: What call does the record list for OCc1ccc(-c2ccc(-c3ccc(CO)s3)o2)s1 ?
Response line: true (1)

Prompt line: Please give the result for Nc1nc(Nc2ccc(S(N)(=O)=O)cc2)nn1C(=O)c1c(F)cccc1F too.
Response line: true (1)

Prompt line: How about this compound: COc1ccc2c(c1)CC[C@@H](CN(C)CC(=O)O)[C@H]2c1ccccc1
Response line: false (0)
